Where do these numbers come from? They come from patent US9353090B2.

# assayText: physchem
# assayConditions: pH 6.8, aqueous buffer, kinetic from dmso stock, Solubility (pH 6.8)
In this section we review reported solubility at 24 h values for a set of compounds.
Give just the numeric value; µg/mL need not be written.

{"smilesString": "Cc1cc(CN2CCc3c(ccc(COc4ccccc4-c4cccc(N5CC[C@@]6(C(=O)O)C[C@H]6C5)n4)c3C)C2)no1", "solubility at 24 h (µg/mL)": 0.5}
{"smilesString": "Cc1cccc(-c2csc(N3C[C@@H]4C[C@]4(C(=O)O)C3)n2)c1OCc1ccc2c(c1C)CCN(C1CCOCC1)C2", "solubility at 24 h (µg/mL)": 62}

Okay, now this compound:
Prompt line: Look up and report measured solubility at 24 h for this entry: `Cc1cc(COc2c(C)cccc2-c2cccc(N3C[C@@H]4C[C@]4(C(=O)O)C3)n2)cc2c1CN(C1CCOCC1)CC2`
Response line: 60

----------
# assayText: Human liver microsome (HLM) metabolic stability assay
# Type: in vitro ADME
# assayConditions: human liver microsomes
propertyMeasured: Metabolic stability (Qh %), % hepatic blood flow

{"compound": "CO[C@@H]1CN(c2nc(-c3cc(F)cc(C)c3OCc3ccc4c(c3)[C@@H](C)CN(C3CCOCC3)CC4)cs2)CC[C@@H]1C(=O)O", "result": "45%"}

Prompt line: Kindly indicate its recorded Metabolic stability (Qh %), % hepatic blood flow. Item: `CCO[C@H]1CN(c2nccc(-c3cccc(C)c3OCc3cc4c(c(OC)c3)CN(C3CCOCC3)CC4)n2)CC[C@H]1C(=O)O`
Response line: <24%

Prompt line: Check the records and state Metabolic stability (Qh %), % hepatic blood flow for `CO[C@H]1CN(c2nc(-c3cccc(C)c3OCc3cc(C)c4c(c3)CCN(C3COC3)CC4)cs2)CC[C@H]1C(=O)O`
Response line: <24%

Prompt line: Retrieve Metabolic stability (Qh %), % hepatic blood flow measured for `CO[C@H]1CN(c2nc(-c3cccc(Cl)c3OCc3ccc4c(c3)[C@@H](C)CN(C3CCOCC3)CC4)cs2)CC[C@H]1C(=O)O` and print it.
Response line: 25%

Prompt line: Give the value of Metabolic stability (Qh %), % hepatic blood flow reported for the following: CO[C@H]1CN(c2nc(-c3cccc(C)c3OCc3cc(C)c4c(c3)CCN(CC3COCCO3)C4)cs2)CC[C@H]1C(=O)O (single isomer, unassigned) [Compound 169]
Response line: <24%

Prompt line: Report Metabolic stability (Qh %), % hepatic blood flow for Cc1ccc(OCc2cc(C)c3c(c2)CCN(C2CCOC2)C3)c(-c2csc(N3CC[C@@]4(C(=O)O)C[C@H]4C3)n2)c1 (mixture of isomers)
Response line: 43%

----------
# assayText: physchem
# assayConditions: pH 2.2, aqueous buffer, kinetic from dmso stock, Solubility (pH 2.2)
Readings of solubility at 24 h for the listed compounds
Reply with just the number (in µg/mL).

Some entries whose results are on file:
{"smilesString": "Cc1cccc(-c2cccc(N3C[C@@H]4C[C@]4(C(=O)O)C3)n2)c1OCc1cc(C#N)c2c(c1)CCN(C1CCOCC1)C2", "unitsSymbol": "µg/mL", "solubility at 24 h": 110}
{"smilesString": "COC[C@H]1N(c2cccc(-c3cccc(Cl)c3OCc3cc(C)c4c(c3)CCN(C3CCOCC3)C4)n2)C[C@@H]2C[C@@]21C(=O)O", "unitsSymbol": "µg/mL", "solubility at 24 h": 155}
{"smilesString": "CO[C@H]1CN(c2nc(-c3cccc(C)c3OCc3ccc4c(c3)[C@@H](C)CN(C3CCOCC3)CC4)cs2)CC[C@H]1C(=O)O", "unitsSymbol": "µg/mL", "solubility at 24 h": 155}
{"smilesString": "CCO[C@@H]1CN(c2nc(-c3cccc(C)c3OCc3cc(F)c4c(c3)CCN(C3CCOCC3)C4)cs2)CC[C@@H]1C(=O)O", "unitsSymbol": "µg/mL", "solubility at 24 h": 112}
{"smilesString": "Cc1cc(COc2c(C)cccc2-c2csc(N3CC[C@@]4(C(=O)O)C[C@H]4C3)n2)cc2c1CN(C1CCC(F)(F)CC1)CC2", "unitsSymbol": "µg/mL", "solubility at 24 h": 141}

Prompt line: Annotate the compound `O=C(O)[C@@]12CCN(c3cccc(-c4ccccc4OCc4ccc5c(c4)CCN(C4COC4)C5)n3)C[C@@H]1C2` with its measured solubility at 24 h.
Response line: 110
